From: the supplement of paper PMC9170038

Tested on: MS2 coat protein
Assay: apparent KD of MS2 coat protein; designed switch direction (-1 OFF switch, 1 ON switch): 1; higher = weaker reporter binding
Settings: input ligand: none
apparent KD of MS2 coat protein vs 400 nM: at or above is T, below is F.

Chain Sequence | Assigned Category
GCGAAGAGGUAAGGAUAUUCAUGGCGGAGACAUGAGGAUCACCCAUGUAGGAGACGAAAUCUAAGGGAGAAGGUACCAGGACGC [AK SSNG2-V2-14] (Eterna round: R96, puzzle: Same State NG 2) | F
GGUGCGAAAUAAGCCUACAUGAGGAUCACCCAUGUAUGUAGGCAGGAUAUCGUAUGCAAAGCAUACGAGAAGGGCUGUCGCACC [Mat - Same State NG 3 - JL Mod - D48] (Eterna round: R96, puzzle: Same State NG 3) | F
GGUGGGUUGCUGCCGGCACAUGAGGAUCACCCAUGUUUUGGGAAGGAUAUGGUCCCUCUUUGGUGCCAGAAGGUCCCGUUGGUG [salish99_SSNG3_r04_714] (Eterna round: R96, puzzle: Same State NG 3) | T
GGUAUCGGCACAGGAUAUGCUAUCCUUUGGGUAGCAGAAGGGUGAACAUGAGGAUCACCCAUGUAGGUGCCAGGGCGUGAGCCC [JL SSNG1 1.80] (Eterna round: R96, puzzle: Same State NG 1) | F
UACUUAGUGGUAGGAUAUGUAGGAUAUGGCGAGAGCUAAGCUUGGAAGUCACUUCAGCCAGAAGGACAGAAGGACCACUCUCUC [pwkr ssNG2 2FMN + F9.12] (Eterna round: R96, puzzle: Same State NG 2) | F
AGUCCAGCCUGAGCUGGACAAAAGCAUGUACAUGAGGAUCACCCAUGUCAUGUACAAGCUUUUUGCUCGAAAUAAUA [Mat - hsa-mir-208a - Mod of JL - D32] (Eterna round: R96, puzzle: Sensor for hsa-mir-208a) | T
GUAGCAUACCGAGGAUAUUCAUUACAUGAGGAUCACCCAUGUUUAUUAUAGGCCAAAAGGCCUUGGGAGAAGGCGGAAUGCUAC [Xeonanis - 20 Mod12] (Eterna round: R96, puzzle: Same State NG 2) | F
